Target: Scavenger receptor class B member 1 (Mus musculus)
Test: enhancers of DiI-HDL lipid transfer via SR-BI – cell-based, ldlA[mSR-BI] CHO, DiI fluorescence, cherry-pick, dose response (AID 602191);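 further: cell fluorescence from internalized DiI-labeled HDL after washing; 0% = median of DMSO wells and 100% = twice the DMSO signal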
Details: ldlA[mSR-BI] CHO cells, 3 h, at 35 µM (top of the series)
measure name: activation (HDL uptake increase) (%)
// units = %; emit number, no label

smiles record: COc1cccc(N2CCN(c3ccc4nnc(CCC(=O)Nc5cc(C)ccn5)n4n3)CC2)c1
unit annotation: %
activation (HDL uptake increase): -11.4

smiles record: Cc1ccc2nc(N(CCCN(C)C)C(=O)c3ccc(S(=O)(=O)N4CCOCC4)cc3)sc2c1
unit annotation: %
activation (HDL uptake increase): -2.75

smiles record: Cc1ccccc1-c1nnc(SCC(=O)Nc2c(C)n(C)n(-c3ccccc3)c2=O)o1
unit annotation: %
activation (HDL uptake increase): -18.8

smiles record: NC(=O)C1CCN(C(=O)c2ccc(NS(=O)(=O)c3ccc(F)c(F)c3)cc2)CC1
unit annotation: %
activation (HDL uptake increase): -2.55

The compound identified as COCCn1c(=O)[nH]c2cc(C(=O)N3CCN(c4ccccc4OC)CC3)ccc2c1=O registered its activation (HDL uptake increase) at -12.6

Sample Cc1ccc(CNC(=O)CCNC(=O)c2ccc(Br)o2)cc1 ; activation (HDL uptake increase) observed: -10.8

# compound Nc1nonc1-n1nnc(C(=O)N/N=C/c2cccs2)c1CSc1ccccc1 ; its activation (HDL uptake increase) = -1.92

Sure, the documented activation (HDL uptake increase) for O=C(CCC(=O)N1CCOc2ccc(Cl)cc21)NCCCN1CCN(Cc2ccccc2)CC1 is 4.6

The recorded activation (HDL uptake increase) for Cc1ccc(N(CC(=O)N2CC(=O)Nc3ccccc32)S(=O)(=O)c2ccc3c(c2)OCCO3)cc1 is -11.9
